Where do these numbers come from? They come from patent US8063049B2.

# target: Human GST-MEK1CA (constitutively active MEK1, Ser218Asp and Ser222Asp) (Homo sapiens, UniProt Q02750, S218D/S222D)
# Construct: GST
# Sequence (Q02750 whole entry S218D/S222D): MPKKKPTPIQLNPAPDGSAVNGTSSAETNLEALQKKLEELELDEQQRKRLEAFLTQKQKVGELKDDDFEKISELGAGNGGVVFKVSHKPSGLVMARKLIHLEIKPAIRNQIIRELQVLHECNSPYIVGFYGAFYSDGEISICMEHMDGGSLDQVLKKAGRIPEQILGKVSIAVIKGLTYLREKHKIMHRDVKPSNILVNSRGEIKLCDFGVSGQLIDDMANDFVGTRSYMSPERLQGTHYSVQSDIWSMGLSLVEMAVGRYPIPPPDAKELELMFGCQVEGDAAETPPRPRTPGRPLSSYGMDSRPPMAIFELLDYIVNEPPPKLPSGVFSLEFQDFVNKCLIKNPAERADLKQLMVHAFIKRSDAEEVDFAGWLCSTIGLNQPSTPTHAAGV
# assay-details: MEK1 enzymatic activity assay (33P incorporation, MEK1CA/ERK2/MBP)
# experimental-context: MEK1CA with ERK2, MBP and [γ33P]ATP; 30 min preincubation, 60 min reaction
Listing of entries alongside the reported IC50.

Example entries begin here.
compound=O=S(=O)(Nc1cn2ccnc2c(Cl)c1Nc1ccc(Br)cc1Cl)C1(CCO)CC1 measurement_label=IC50 value_measured="100 to 1000 nM"
compound=Cc1nn(C)c2c(F)c(Nc3ccc(I)cc3F)c(NS(=O)(=O)C3CC3)cc12 measurement_label=IC50 value_measured="10000 to 50000 nM"

**Query** What does the record list as IC50 for Cc1c(Nc2ccc(I)cc2F)c(NS(=O)(=O)C2CC2)cn2ccnc12 ?
**Result** 10 to 100 nM

**Query** Quick check: IC50 of Cn1cnc2c(F)c(Nc3ccc(I)cc3F)c(NS(=O)(=O)C3(CCO)CC3)cc21 ?
**Result** 10 to 100 nM

**Query** # input compound: Cc1c(Nc2ccc(I)cc2F)c(NS(=O)(=O)C2(CC(O)CO)CC2)cn2ccnc12 (stereo not shown) ; wanted: its IC50
**Result** 10 to 100 nM

**Query** Requested read-out: IC50. Entry: Cc1onc2c(F)c(Nc3ccc(I)cc3F)c(NS(=O)(=O)C3CC3)cc12
**Result** 10 to 100 nM

**Query** // query IC50 value for entry Cc1noc2c(F)c(Nc3ccc(Br)cc3Cl)c(NS(=O)(=O)C3CC3)cc12
**Result** 100 to 1000 nM

**Query** Field request: IC50 | item: Cc1noc2c(F)c(Nc3ccc(I)cc3F)c(NS(=O)(=O)C3(CCO)CC3)cc12
**Result** 10 to 100 nM

**Query** Dear colleague, I am looking for the recorded IC50 of the following compound: Cc1noc2c(F)c(Nc3ccc(I)cc3F)c(NS(=O)(=O)C3CC3)cc12
**Result** 10 to 100 nM

**Query** So what's the measured IC50 for this one? O=S(=O)(Nc1cn2ccnc2c(Cl)c1Nc1ccc(I)cc1F)C1(CCO)CC1
**Result** 10 to 100 nM

---

Attribute: IC50
# target: Human GST-MEK1CA (constitutively active MEK1, Ser218Asp and Ser222Asp) (Homo sapiens, UniProt Q02750, S218D/S222D)
# Construct: GST
# assay-details: MEK1 enzymatic activity assay (33P incorporation, MEK1CA/ERK2/MBP)
# experimental-context: MEK1CA with ERK2, MBP and [γ33P]ATP; 30 min preincubation, 60 min reaction

Worked set:
compound=Cc1c2cc(NS(=O)(=O)C3CC3)c(Nc3ccc(I)cc3F)c(F)c2nn1C measurement_label=IC50 value_measured="1000 to 10000 nM"
compound=Cc1c(Nc2ccc(Br)cc2Cl)c(NS(=O)(=O)C2(CCO)CC2)cn2ccnc12 measurement_label=IC50 value_measured="1000 to 10000 nM"
compound=Cc1ncnc2c(F)c(Nc3ccc(I)cc3F)c(NS(=O)(=O)C3CC3)cc12 measurement_label=IC50 value_measured="10000 to 50000 nM"

**Query** I would be grateful if you could share the reported IC50 for O=S(=O)(Nc1cn2ccnc2c(Cl)c1Nc1ccc(Br)cc1Cl)C1CC1 .
**Result** 100 to 1000 nM

**Query** Fill in: IC50 of Cc1c(Nc2ccc(Br)cc2Cl)c(NS(=O)(=O)C2CC2)cn2ccnc12 is ___
**Result** 100 to 1000 nM

**Query** Could you share which IC50 value was measured for Cc1noc2c(F)c(Nc3ccc(I)cc3F)c(NS(=O)(=O)C3(CC(O)CO)CC3)cc12 (stereo not drawn) ?
**Result** 1 to 10 nM
